In this section, each of the molecules is paired with its reported inhibition at 1 µM.
MEASUREMENT TARGET: panel of 255 wild-type kinases (Homo sapiens, UniProt Q13177)
Sequence (Q13177 whole entry): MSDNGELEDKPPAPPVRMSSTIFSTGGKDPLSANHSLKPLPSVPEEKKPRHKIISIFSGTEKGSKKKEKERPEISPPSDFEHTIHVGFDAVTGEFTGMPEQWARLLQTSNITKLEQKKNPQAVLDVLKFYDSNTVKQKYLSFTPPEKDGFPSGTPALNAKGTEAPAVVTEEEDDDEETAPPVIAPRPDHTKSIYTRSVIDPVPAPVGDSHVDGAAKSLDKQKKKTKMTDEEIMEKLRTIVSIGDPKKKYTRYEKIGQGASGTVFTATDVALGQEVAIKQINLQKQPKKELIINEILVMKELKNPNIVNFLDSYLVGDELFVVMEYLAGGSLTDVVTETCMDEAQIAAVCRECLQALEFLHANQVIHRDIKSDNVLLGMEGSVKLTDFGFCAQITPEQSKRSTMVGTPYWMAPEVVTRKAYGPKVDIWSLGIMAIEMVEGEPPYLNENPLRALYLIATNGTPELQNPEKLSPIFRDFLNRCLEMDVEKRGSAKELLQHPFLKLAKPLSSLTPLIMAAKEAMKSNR
ASSAY NOTES: Kinase panel profiling at 1 µmol/L (MSA or IMAP), percentage inhibition
Type: biochemical
COND: PAK2; 1 µmol/L single concentration; read-out: %-inhibition, PAK2
OBSERVATION TYPE: inhibition at 1 µM (%)

SUBSTANCE SMILES	MEASUREMENT TARGET	UNIT ABBREVIATION	NUMBER
COC(=O)N[C@@H](C)CNc1nccc(-c2cn(C(C)C)nc2-c2cc(Cl)cc(NS(C)(=O)=O)c2F)n1	panel of 255 wild-type kinases (Homo sapiens, UniProt Q13177)	%	9.49
C[C@H]1Oc2cc(cnc2N)-c2c(nn(C)c2C#N)CN(C)C(=O)c2ccc(F)cc21	panel of 255 wild-type kinases (Homo sapiens, UniProt Q13177)	%	11
Cn1cc(-c2cc3c(N4CCN(c5ncc([C@@](C)(N)c6ccc(F)cc6)cn5)CC4)ncnn3c2)cn1	panel of 255 wild-type kinases (Homo sapiens, UniProt Q13177)	%	-4.42
Cc1cc(Nc2ncnc3ccc(NC4=NC(C)(C)CO4)cc23)ccc1Oc1ccn2ncnc2c1	panel of 255 wild-type kinases (Homo sapiens, UniProt Q13177)	%	-1.88
COc1cc2ncnc(Nc3ccc(F)c(Cl)c3)c2cc1NC(=O)/C=C/CN1CCCCC1	panel of 255 wild-type kinases (Homo sapiens, UniProt Q13177)	%	2.5
CCN1CCN(c2ccc(Nc3cc(N(C)C(=O)Nc4c(Cl)c(OC)cc(OC)c4Cl)ncn3)cc2)CC1	panel of 255 wild-type kinases (Homo sapiens, UniProt Q13177)	%	1.66
CN1CCN(c2ccc(C(=O)Nc3n[nH]c4ccc(Cc5cc(F)cc(F)c5)cc34)c(NC3CCOCC3)c2)CC1	panel of 255 wild-type kinases (Homo sapiens, UniProt Q13177)	%	-10

src = paper PMC9516332
